# Test system: CD2F1 mice, L1210 leukemia ip, survival T/C
# EXPERIMENTAL PROTOCOL: NCI In Vivo Anticancer Drug Screen. Data for tumor model L1210 Leukemia (intraperitoneal) in CD2F1 (CDF1) mice
# EXPERIMENTAL PARAMETERS: endpoint: mean survival time; dose: 200.0 mg/kg/injection; schedule: Q04DX003 (ip); vehicle: saline with Tween-80; higher = longer survival
Inconclusive results and toxic doses are left out.
Would you mind telling me the reported T/C of each entry?

MOLECULE	SYSTEM NAME	T/C
N#CCc1ccc(N=Nc2c(N)nc(N)nc2N)cc1	CD2F1 mice, L1210 leukemia ip, survival T/C	104 % of control

Record T/C per entry; entries follow.
1. CC1=C(/C=C/C(C)=C/C=C/C(C)=C/C(=O)O)C(C)(C)CCC1
2. C=CC1CC(=O)N1Cc1ccccc1 (stereo not drawn)
3. O=Cc1c2ccc(Cl)cc2nc2ccc(Cl)cc12
4. O=C(O)c1ccccc1Nc1ccc(Br)cc1

Result:
100 % of control
92 % of control
98 % of control
98 % of control

Dear colleague, could you send me T/C for each of the items below? Thanks.
1. COc1ccc(C(=O)CC(=O)Nc2ccc([N+](=O)[O-])cc2)cc1
2. COC(=O)C1(N)CCCC1
3. C=CCOC(=O)CCCCCCCCC(=O)OCC=C
4. C(=NC1CCCCC1)c1c[nH]c2ccccc12
5. Nc1nc2c(ncn2-c2cccc(C(F)(F)F)c2)c(=O)[nH]1

Result:
102 % of control
122 % of control
94 % of control
91 % of control
89 % of control
